List of percentage damage caused to the plant, five-point scale, ZEAMX values.
# System: Zea mays (ZEAMX)
# assayProcedure: Pre-emergence herbicidal test
# Format: in vivo
# testParameters: 1000 g/ha, evaluated after 13 days

compound | result
CCCCCCOC(=O)c1nn(-c2ccc(OC(F)(F)F)cc2)c2cccc(S(C)(=O)=O)c2c1=O | 3 (3=41-60%)
CCOC(=O)c1nn(-c2ccc(OC(F)(F)F)cc2)c2cccc(SCC)c2c1=O | 1 (1=10-20%)
Cc1ccc2c(c1S(C)(=O)=O)c(=O)c(C(=O)O)nn2-c1ccc(OC(F)(F)F)cc1 | 1 (1=10-20%)
CS(=O)(=O)c1cccc2c1c(=O)c(C(=O)OCCCCOCc1ccccc1)nn2-c1ccc(OC(F)(F)F)cc1 | 0 (0=0%)

Item "CCCCCCCCCOC(=O)c1nn(-c2ccc(OC(F)(F)F)cc2)c2cccc(S(C)(=O)=O)c2c1=O" has what recorded percentage damage caused to the plant, five-point scale, ZEAMX?
0 (0=0%)

Do the same for "CCOC(=O)c1nn(-c2ccc(OC(F)(F)F)cc2)c2ccc(F)c(S(C)(=O)=O)c2c1=O" please
0 (0=0%)

How about this compound: "CCOC(=O)c1nn(-c2ccc(Cl)cc2Cl)c2cccc(S(C)(=O)=O)c2c1=O"
0 (0=0%)

* * *

# Tested on: Amaranthus retoflexus (AMARE)
# assayProcedure: Post-emergence herbicidal test
# Assay type: in vivo
# testParameters: 1000 g/ha unless otherwise stated, evaluated after 13 days
# Description: Seeds of a variety of test species are sown in standard soil in pots (Amaranthus retoflexus (AMARE), Solanum nigrum (SOLNI), Setaria faberi (SETFA), Lolium perenne (LOLPE), Echinochloa crus-galli (ECHCG), Ipomoea hederacea (IPOHE), Abutilon theophrasti (ABUTH), Zea mays (ZEAMX)). […] After 13 days the test is evaluated for the percentage damage caused to the plant. […]
Overview of recorded percentage damage caused to the plant, AMARE (five-point scale) for various molecules

Query the reported percentage damage caused to the plant, AMARE (five-point scale) for Amaranthus retoflexus (AMARE); item: Cc1cc(S(C)(=O)=O)c2c(=O)c(C(=O)O)nn(-c3ccc(OC(F)(F)F)cc3)c2c1 [Compound P7]
1 (1=10-20%)

Thanks! And CS(=O)(=O)c1cccc2c1c(=O)c(C(=O)OCCCCOCc1ccccc1)nn2-c1ccc(OC(F)(F)F)cc1 [Compound P89] ?
0 (0=0%)

Please do the same for CCOC(=O)c1nn(-c2ccc(OC(F)(F)F)cc2)c2ccc(C#N)c(S(C)(=O)=O)c2c1=O [Compound P47] as well.
0 (0=0%)

* * *

Attribute: percentage damage caused to the plant, five-point scale, ZEAMX
# Test system: Zea mays (ZEAMX)
# assayProcedure: Pre-emergence herbicidal test
# Format: in vivo
# testParameters: 1000 g/ha, evaluated after 13 days

Fill in the blank: the reported percentage damage caused to the plant, five-point scale, ZEAMX of "CCOC(=O)c1nn(-c2ccc(OC(F)(F)F)cc2)c2cc(C#N)cc(SC)c2c1=O" is ____.
0 (0=0%)

For "CS(=O)(=O)c1cccc2c1c(=O)c(C(=O)O)nn2-c1ccc(Cl)cc1F" then?
1 (1=10-20%)

* * *

# Test system: Amaranthus retoflexus (AMARE)
# assayProcedure: Post-emergence herbicidal test
# Type: in vivo
# testParameters: 1000 g/ha unless otherwise stated, evaluated after 13 days
valueKind: percentage damage caused to the plant, AMARE (five-point scale)

compound | result
CS(=O)(=O)c1cccc2c1c(=O)c(C(=O)OCC1CC1)nn2-c1ccc(OC(F)(F)F)cc1 | 0 (0=0%)
CS(=O)(=O)c1cccc2c1c(=O)c(C(=O)OCCCc1ccccc1)nn2-c1ccc(OC(F)(F)F)cc1 | 0 (0=0%)
CCOC(=O)c1nn(-c2ccc(OC(F)(F)F)cc2)c2ccc(Br)c(S(C)(=O)=O)c2c1=O | 1 (1=10-20%)
O=C(O)c1nn(-c2ccc(OC(F)(F)F)cc2)c2cccc([S+]([O-])C3CC3)c2c1=O (centres unmarked) | 0 (0=0%)

Consider the record given below.
Could you share which percentage damage caused to the plant, AMARE (five-point scale) value was measured for "CC(C)(C)COC(=O)c1nn(-c2ccc(OC(F)(F)F)cc2)c2cccc(S(C)(=O)=O)c2c1=O" ?
0 (0=0%)
